System: SK-MEL-2 melanoma
Protocol Details: NCI tumour cell line growth inhibition, 48 h
Observable: log10 of TGI (log10 of the value in µM)

O=[N+]([O-])c1cc([N+](=O)[O-])c(Cl)cc1Cl    0.54
CC1(C)COC2=C(C1)C(=O)c1ccccc1C2=O    0.59
CC(C)(C)OC(=O)NCc1cccc(N=C=S)c1    1.66
O=[N+]([O-])c1cc2no[n+]([O-])c2cc1N1CCCCC1    1.48
CC1=CP(=O)(c2c(C(C)C)cc(C(C)C)cc2C(C)C)CCC1Cl (stereo unspecified)    1.50
C#CCN(Cc1ccc2nc(-c3ccccc3)c(N)nc2c1)c1cc(OC)c(OC)c(OC)c1    1.81
C=C1C(=O)OC2CC(C)C3C4OC4C(O)C3(C)C(O)C12 (stereo unspecified)    1.86
CCSC[C@@H]1C[C@](O)(c2ccc(F)cc2)[C@@H](c2ccc(F)cc2)O1    1.62
CC1OC(CC(=O)O)CC2=C1C(=O)c1c(O)cccc1C2=O (stereo unspecified)    0.06
COc1ccc(C(=O)C#Cc2c[nH]c(=O)[nH]c2=O)cc1    1.33
Cc1cc2nc3c(C#N)c4c(c(-c5ccc(Cl)cc5)n3c2cc1C)CCC4    1.56

----------
This listing pairs molecules with measured GI50.
System: ACHN renal
Protocol Details: NCI tumour cell line growth inhibition, 48 h
Observable: GI50

Cc1ccc(-n2nnnc2-c2cnc(N3CCOCC3)nc2-c2cccc(C(F)(F)F)c2)cc1    4 µM
CC([O-])=C1C(=O)c2ccccc2C1=O.CC([O-])=C1C(=O)c2ccccc2C1=O.CC[O-].CC[O-].[Ti+4]    > 100 µM
NC(CSSCC(N)C(=O)O)C(=O)O (stereo not given)    > 100 µM
N#CC(C#N)=C/C=C(\Sc1ccc(F)cc1Cl)c1ccc(Cl)cc1    0.883 µM
Cn1cc(C2=C(Nc3ccccc3)C(=O)NC2=O)c2ccccc21    > 25 µM

----------
Quick reference: GI50 of the listed items.
Tested on: SK-MEL-5 melanoma
Protocol Details: NCI tumour cell line growth inhibition, 48 h
Observable: GI50

N#CC(C#N)=C/C=C(\Sc1ccc(F)cc1Cl)c1ccc(Cl)cc1    2.59 µM
COc1ccc(C(=O)c2sc3nc(-c4cccs4)ccc3c2N)cc1OC    2.01 µM
Cc1cc(O)c(C2=NN(c3ccc(S(N)(=O)=O)cc3)C(/C=C/c3ccccc3)C2)cc1Cl (stereo not given)    4.23 µM
CN(CCCCCl)P(=O)(OCc1ccc([N+](=O)[O-])o1)OCC1OC(n2cnc([N+](=O)[O-])c2N)C(O)C1O (stereo not given)    37 µM
Cn1cc(C2=C(Nc3ccccc3)C(=O)NC2=O)c2ccccc21    > 25 µM
O=[N+]([O-])c1cc([N+](=O)[O-])c(Cl)cc1Cl    1.79 µM
CC(=O)O[C@H]1CC[C@@]2(C)C(=C/C(=N/OCCN3CCCC3)[C@H]3[C@@H]4CC[C@H](OC(C)=O)[C@@]4(C)CC[C@@H]32)C1    17.3 µM
O=C1/C(=C/c2ccc(O)cc2)COc2ccc(O)c(O)c21    1.81 µM
CC(=O)/C=C/c1ccc(OCc2ccc(Cl)cc2)cc1    140 µM
O=C1CC/C(=C/COc2cc(=O)oc3ccccc23)O1    16.8 µM

----------
Quick list: GI50 per entry.
Tested on: OVCAR-3 ovarian
Protocol Details: NCI tumour cell line growth inhibition, 48 h
Observable: GI50

CC(C)(C)OC(=O)NCc1cccc(N=C=S)c1    16.4 µM
CCCCCCNCc1cc(C(C)(C)C)cc(CNCCCCCC)c1O    1.73 µM
CC(=O)O[C@H]1CC[C@@]2(C)C(=C/C(=N/OCCN3CCCC3)[C@H]3[C@@H]4CC[C@H](OC(C)=O)[C@@]4(C)CC[C@@H]32)C1    > 100 µM
CN(CCCCCl)P(=O)(OCc1ccc([N+](=O)[O-])o1)OCC1OC(n2cnc([N+](=O)[O-])c2N)C(O)C1O (stereo unspecified)    > 100 µM
NC(CSSCC(N)C(=O)O)C(=O)O (stereo unspecified)    > 100 µM
CCSC[C@@H]1C[C@](O)(c2ccc(F)cc2)[C@@H](c2ccc(F)cc2)O1    19.2 µM

----------
Test system: HOP-92 NSCLC
Protocol Details: NCI tumour cell line growth inhibition, 48 h
Recorded TGI by entry
Observable: TGI

Br[C@@H]1[C@H]2c3nc4ccccc4nc3[C@@H]1C[C@H]2Br    > 100 µM
COc1cnc2c(c1)C(=O)c1c-2n(CCCN2CCC(O)CC2)c(=O)c2cc(Cl)ccc12    34.8 µM
COc1cc2c(cc1OC)C(=O)/C(=C/c1cc(C)cc(C)c1)C2    > 100 µM
CCSC[C@@H]1C[C@](O)(c2ccc(F)cc2)[C@@H](c2ccc(F)cc2)O1    28.6 µM
O=c1cccc(-c2cccc(=O)[nH]2)[nH]1    96.5 µM
C(#CP(c1ccccc1)c1ccccc1)P(C#CP(c1ccccc1)c1ccccc1)c1ccccc1    > 100 µM
Cn1cc(C(=O)c2ccccc2)cc(C(=O)c2ccccc2)c1=O    > 100 µM
[N-]=[N+]=CC(=O)OCCCCl    > 100 µM
C=C1C(=O)O[C@H]2C[C@@H]1[C@@H](O)[C@H](O)[C@@H](C)CCCC(C)=CCC[C@@]2(C)O    99.5 µM
COc1ccccc1C1(c2c(OC)c(=O)c2=O)SCCCS1    > 100 µM
Cc1ccc2c(c1)nc1n2C(N)=Nc2ccccc2S1    > 100 µM
O=C1CSC(c2cccc(Cl)c2)N1c1ccc(-c2ccc(-n3c(-c4ccccc4)nc4ccccc4c3=O)cc2)cc1 (centres undefined)    56.5 µM
NC(Cc1ccc2nc3c4ccccc4c(=O)cc-3oc2c1)C(=O)O (centres undefined)    > 100 µM
O=C(O)/C=C/c1ccc2c(c1)CC1(Cc3ccccc3C1)C2    > 100 µM
CCOC(=O)/C=C(\C(=O)OCC)n1cc(C)c(=O)n(Cc2cnnn2COCCOC(C)=O)c1=O    4.27 µM
CC1OC2OC3C(OCC(O)C3O)OC(=O)[C@]34CCC(C)(C)CC3C3=CCC5[C@@]6(C)C[C@H](O)[C@H](OC7OC(CO)C(O)C(O)C7OC7OCC(OC(=O)CC(C)(O)CC(=O)OC1C(O)C2O)C(O)C7O)[C@@](C)(CO)C6CC[C@@]5(C)[C@]3(C)CC4 (some centres undefined)    6.03 µM
Cn1cc(C2=C(Nc3ccccc3)C(=O)NC2=O)c2ccccc21    > 25 µM
CCCCCCCCCCCCCCCCNc1ccn(C2CC(O)C(COC(c3ccccc3)(c3ccccc3)c3ccc(OC)cc3)O2)c(=O)n1 (centres undefined)    > 100 µM
O=C1N(Cc2ccccc2Cl)c2ccccc2C12NN=C(c1cccc(Cl)c1)S2 (centres undefined)    3.17 µM

----------
Test system: IGROV1 ovarian
Protocol Details: NCI tumour cell line growth inhibition, 48 h
Observable: TGI

O=C1CSC(c2ccc(Cl)cc2Cl)N1c1ccc(Oc2ccc(Cl)cc2)c(Cl)c1 (stereo unspecified)    > 100 µM
O=C1CCCCC12CCC/C2=N\O (stereo unspecified)    > 100 µM
CCOC(=O)C1(C#N)CC1    > 100 µM
O=C(Cn1c(C(=O)c2ccccc2)nc2ccccc21)c1ccccc1    > 31.6 µM
COC(=O)C1(SC)C2CCC3C2CCC31 (stereo unspecified)    > 100 µM
NC1(Cc2ccc(Cl)cc2)CCN(c2ncnc3[nH]ccc23)CC1    7.8 µM

----------
System: KM12 colon
Protocol Details: NCI tumour cell line growth inhibition, 48 h
Measured TGI accompanies every entry in the list below.
Observable: TGI

CCCCOC1OC(COC(=O)C(C)C)C(OC(=O)C(C)C)C(O)C1OC1OC(C)C(OC(=O)CCC)C(OC(=O)C(C)C)C1O (centres undefined)    29 µM
COc1cc2ccnc3c(=C(SC)SC)c(=O)c(c1OC)c23    53.5 µM
O=C(CCCN1CCC(C(O)c2ccc(F)cc2)CC1)c1ccc(F)cc1 (centres undefined)    116 µM
COc1cccc(N2C(=O)C3C4C=C5c6ccccc6N(c6ccccc6)C5(C3C2=O)[C@H]2C(=O)N(c3cccc(OC)c3)C(=O)[C@@H]42)c1 (some centres undefined)    > 100 µM
COC1(CC[C@@H](C)COC2OC(CO)C(O)C(O)C2O)O[C@H]2C[C@H]3[C@@H]4CC=C5C[C@@H](OC6OC(CO)C(O)C(OC7OC(CO)C(O)C(O)C7O)C6OC6OC(C)C(O)C(O)C6O)CC[C@]5(C)[C@H]4CC[C@]3(C)[C@H]2[C@@H]1C (some centres undefined)    4.36 µM
Cc1nc2ccccc2nc1N=Nc1ccccc1    93.5 µM
C(#CP(c1ccccc1)c1ccccc1)P(C#CP(c1ccccc1)c1ccccc1)c1ccccc1    > 100 µM
O=C1CSC(c2cccc(Cl)c2)N1c1ccc(-c2ccc(-n3c(-c4ccccc4)nc4ccccc4c3=O)cc2)cc1 (centres undefined)    > 100 µM
CC(Oc1ccccc1)C(=O)NNC(=O)OC(C)(C)C (centres undefined)    > 100 µM
CN(CCNC(=O)c1c[nH]c2c1Cc1ccccc1-2)CCNC(=O)c1c[nH]c2c1Cc1ccccc1-2    > 100 µM
COc1ccc(NC(=O)CC(=O)n2nc(C)c(N=Nc3ccccc3C(=O)O)c2C)cc1    > 100 µM
Cc1ccc2c(c1)nc1n2C(N)=Nc2ccccc2S1    > 100 µM
CCOC(=O)C1(C#N)CC1    > 100 µM
CC(C)=CC[C@]12CCN(C)[C@H]1N(S(=O)(=O)c1ccccc1)c1ccccc12    > 100 µM
NC(=O)CC(N=Cc1nc(-c2ccccc2)oc1O)C(=O)O (centres undefined)    > 100 µM
O=c1[nH]cnc2c(COCCO)c[nH]c12    > 100 µM
CC(=O)NC1=NC(=O)/C(=C/c2ccc(/C=C3/C(=O)N=C(NC(C)=O)N3C)cc2)N1C    > 100 µM
CCc1c(-c2ccc(OC)cc2)oc(OC)c(C)c1=O    > 100 µM
Cc1cc(S(=O)(=O)Nc2n[nH]c(N)n2)c(Cl)cc1Cl    > 10 µM
